For each record, write down the corresponding Km.
System: Geobacillus caldoxylosilyticus GcL (SEQ ID NO: 1) variant GcL 14 (Q41P/S66A/S81A/T91S/R111K/F141/A144T/C147S/V1751/H178D/I182L/L183E/M244A/N245K)
Assay overview: Lactonase assay of variant GcL 14
Format: biochemical
Experimental conditions: GcL 14, Table 6
Answers are plain numbers, in µM.

Example results:
| Compound | Unit abbrev | Measured |
| --- | --- | --- |
| CCCC(=O)N[C@H]1CCOC1=O | µM | 0.92 |
| CCCCCCC1CCC(=O)O1 (centres unmarked) | µM | 0.32 |
| CCCCCC1CCC(=O)O1 (centres unmarked) | µM | 9.09 |
| O=C1CCCCO1 | µM | 1.12 |

Count: 7. Required value per item: Km.
1. CCCCC1CCCC(=O)O1 (centres unmarked)
2. CCCCCCCC(=O)N[C@H]1CCOC1=O
3. CCCCCC1CCCC(=O)O1 (centres unmarked)
4. CCCCCC(=O)CC(=O)N[C@H]1CCOC1=O
5. O=C1CCCCCO1
6. CCCCC1OC(=O)CC1C (centres unmarked)
7. O=C1CCCO1

1. 9.09
2. 1.32
3. 0.32
4. 0.29
5. 2.49
6. 14
7. 5.9

Count: 3. Required value per item: Km.
1. CCCCC1CCCCC(=O)O1 (centres unmarked)
2. CCCC1CCC(=O)O1 (centres unmarked)
3. CCCCCCCCCC(=O)CC(=O)N[C@H]1CCOC1=O

1: 7.98; 2: 2.77; 3: 0.5
